# targetUnderTest: Putative P2Y purinoceptor 10 (Homo sapiens, UniProt O00398)
# Sequence (O00398 whole entry): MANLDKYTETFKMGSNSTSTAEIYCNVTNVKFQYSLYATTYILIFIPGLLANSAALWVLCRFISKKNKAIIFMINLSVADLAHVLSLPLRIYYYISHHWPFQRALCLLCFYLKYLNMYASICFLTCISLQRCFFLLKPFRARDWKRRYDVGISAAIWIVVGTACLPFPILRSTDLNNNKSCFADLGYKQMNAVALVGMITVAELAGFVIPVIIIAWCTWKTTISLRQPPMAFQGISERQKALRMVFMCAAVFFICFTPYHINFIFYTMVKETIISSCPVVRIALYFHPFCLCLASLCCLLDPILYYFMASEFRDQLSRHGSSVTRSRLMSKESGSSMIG
# testSummary: Agonist activity at human LPS2/P2Y10 transfected in HEK293-A cells co-transfected with AP-TGFalpha assessed as AP-TGFalpha release by TGFalpha shedding assay
# Type: functional, cell-based
# conditionLabel: read-out: EC50
readoutName: pEC50
pEC50 field: float, defined as -log10 of concentration (mol/L).

• N[C@@H](COP(=O)(O)OCCCOC(=O)CCc1ccccc1Oc1cccc(-c2ccccc2)c1)C(=O)O = 7.21
• N[C@@H](COP(=O)(O)OCCCOC(=O)CCc1ccccc1Oc1ccc(-c2ccccc2)cc1)C(=O)O = 7.15

Now let's try a different one.
Value of measured pEC50 for the entry N[C@@H](COP(=O)(O)OCCCOC(=O)CCc1ccccc1Oc1cc(-c2ccccc2)cc(-c2ccccc2)c1)C(=O)O : 6.92

---

# targetUnderTest: UniProt:O00398
# testSummary: Agonist activity at wildtype N-terminal FLAG-tagged human LPS2/P2Y10 transfected in HEK293-A cells co-transfected with AP-TGFalpha assessed as AP-TGFalpha release by TGFalpha shedding assay relative to LysoPS
# Format: functional, cell-based
# conditionLabel: filed as agonist
readoutName: Emax (%)
Output spec: scalar in %, unitless text.

Answered cases to consult:
* N[C@@H](COP(=O)(O)OCCCOC(=O)CCc1ccccc1Oc1ccc(C23C[C@H]4C[C@@H](C2)C[C@@H](C3)C4)cc1)C(=O)O | 120
* Cc1ccc(Oc2ccccc2CCC(=O)OCCCOP(=O)(O)OC[C@H](N)C(=O)O)cc1 | 114
* CC(C)(C)c1ccc(Oc2ccccc2CCC(=O)OCCCOP(=O)(O)OC[C@H](N)C(=O)O)cc1 | 119

Value of measured Emax for the entry N[C@@H](COP(=O)(O)OCCCOC(=O)CCc1ccccc1Oc1ccc(-c2ccccc2)cc1)C(=O)O : 125

---

Parameter: Emax. Scope: all listed entries.
# targetUnderTest: Putative P2Y purinoceptor 10 (Mus musculus)
# testSummary: Agonist activity at mouse LPS2/P2Y10 transfected in HEK293-A cells co-transfected with AP-TGFalpha assessed as AP-TGFalpha release by TGFalpha shedding assay relative to LysoPS
# Format: functional, cell-based
# conditionLabel: filed as agonist
Output spec: scalar in %, unitless text.

Answered cases to consult:
- N[C@@H](COP(=O)(O)OCCCOC(=O)CCc1ccccc1Oc1cccc(-c2ccccc2)c1)C(=O)O: 109
- N[C@@H](COP(=O)(O)OCCCOC(=O)CCc1ccccc1Oc1ccc(-c2cc(-c3ccccc3)cc(-c3ccccc3)c2)cc1)C(=O)O: 83
- N[C@@H](COP(=O)(O)OCCCCOC(=O)CC(=O)Cc1ccccc1Oc1ccc(-c2ccccc2)cc1)C(=O)O: 98
- CC(C)(C)c1ccc(Oc2ccccc2CCC(=O)OCCCOP(=O)(O)OC[C@H](N)C(=O)O)cc1: 123
- CCCCCCCCCCCOc1ccccc1CCC(=O)OCCCOP(=O)(O)OC[C@H](N)C(N)=O: 111
- N[C@@H](COP(=O)(O)OCCCOC(=O)CCc1ccccc1OCc1cccc(Oc2ccccc2)c1)C(=O)O: 63

Value of measured Emax for the entry CC(C)(C)c1ccc(-c2ccc(Oc3ccccc3CCC(=O)OCCCOP(=O)(O)OC[C@H](N)C(=O)O)cc2)cc1 : 78

Value of measured Emax for the entry Cc1ccccc1Oc1ccccc1CCC(=O)OCCCOP(=O)(O)OC[C@H](N)C(=O)O : 70

Value of measured Emax for the entry N[C@@H](COP(=O)(O)OCCCOC(=O)CCc1ccccc1Oc1cc(-c2ccccc2)cc(-c2ccccc2)c1)C(=O)O : 121

Value of measured Emax for the entry CC(C)(C)c1ccc(-c2cccc(COc3ccccc3CCC(=O)OCCCOP(=O)(O)OC[C@H](N)C(=O)O)c2)cc1 : 99

---

Parameter: pEC50. Scope: all listed entries.
# targetUnderTest: Putative P2Y purinoceptor 10 (Mus musculus, UniProt Q8BFU7)
# Sequence (Q8BFU7 whole entry): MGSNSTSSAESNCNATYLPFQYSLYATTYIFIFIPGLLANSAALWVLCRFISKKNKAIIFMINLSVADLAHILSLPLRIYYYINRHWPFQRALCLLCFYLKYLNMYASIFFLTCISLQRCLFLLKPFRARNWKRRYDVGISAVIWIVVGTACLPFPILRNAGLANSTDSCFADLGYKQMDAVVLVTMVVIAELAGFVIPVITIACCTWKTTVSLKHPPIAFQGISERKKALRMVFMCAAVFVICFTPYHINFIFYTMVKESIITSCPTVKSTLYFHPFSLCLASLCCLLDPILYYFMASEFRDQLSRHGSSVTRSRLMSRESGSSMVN
# testSummary: Agonist activity at mouse LPS2/P2Y10 transfected in HEK293-A cells co-transfected with AP-TGFalpha assessed as AP-TGFalpha release by TGFalpha shedding assay
# Assay type: functional, cell-based
# conditionLabel: read-out: EC50
pEC50 field: float, defined as -log10 of concentration (mol/L).

Answered cases to consult:
* CCCCCCCC/C=C\CCCCCCCC(=O)OCCCOP(=O)(O)OC[C@H](N)C(N)=O | 7.62
* N[C@@H](COP(=O)(O)OCCCOC(=O)CCc1ccccc1Oc1ccc(-c2ccccc2)cc1)C(=O)O | 8.04
* N[C@@H](COP(=O)(O)OCCCOC(=O)CCc1ccccc1Oc1ccc(C23C[C@H]4C[C@@H](C2)C[C@@H](C3)C4)cc1)C(=O)O | 7.24

Value of measured pEC50 for the entry CC(C)(C)c1cccc(-c2ccc(Oc3ccccc3CCC(=O)OCCCOP(=O)(O)OC[C@H](N)C(=O)O)cc2)c1 : 7.85

Value of measured pEC50 for the entry CCCCCCCCCCCOc1ccccc1CCC(=O)OCC(F)(F)COP(=O)(O)OC[C@H](N)C(=O)O : 8.82

Value of measured pEC50 for the entry N[C@@H](COP(=O)(O)OCCCOC(=O)CCc1ccccc1Oc1ccccc1)C(=O)O : 6.40

Value of measured pEC50 for the entry N[C@@H](COP(=O)(O)OCCOC(=O)CC(=O)CC(=O)Cc1ccccc1Oc1ccc(-c2ccccc2)cc1)C(=O)O : 6.70

Value of measured pEC50 for the entry CCCCCCCC/C=C\CCCCCCCC(=O)OC[C@@H](O)COP(=O)(O)OC[C@H](N)C(=O)O : 7.68

---

Parameter: EC50. Scope: all listed entries.
# targetUnderTest: Putative P2Y purinoceptor 10 (Homo sapiens, UniProt O00398, V159F)
# Sequence (O00398 whole entry V159F): as the sequence (O00398 whole entry) above, with V159F counted along it
# testSummary: Agonist activity at N-terminal FLAG-tagged human LPS2/P2Y10 V159F mutant transfected in HEK293-A cells co-transfected with AP-TGFalpha assessed as AP-TGFalpha release by TGFalpha shedding assay
Output spec: scalar in nM, unitless text.

• N[C@@H](COP(=O)(O)OCCCOC(=O)CCc1ccccc1Oc1ccc(-c2ccccc2)cc1)C(=O)O = 26
• Cc1ccc(Oc2ccccc2CCC(=O)OCCCOP(=O)(O)OC[C@H](N)C(=O)O)cc1 = 660
• N[C@@H](COP(=O)(O)OCCCOC(=O)CCc1ccccc1Oc1ccc(C23C[C@H]4C[C@@H](C2)C[C@@H](C3)C4)cc1)C(=O)O = 270
• CC(C)(C)c1ccc(Oc2ccccc2CCC(=O)OCCCOP(=O)(O)OC[C@H](N)C(=O)O)cc1 = 250

EC50 on Putative P2Y purinoceptor 10 (Homo sapiens, UniProt O00398, V159F) for N[C@@H](COP(=O)(O)OCCCOC(=O)CCc1ccccc1Oc1ccccc1)C(=O)O is 1500

---

# targetUnderTest: UniProt:O00398
# testSummary: Agonist activity at human LPS2/P2Y10 transfected in HEK293-A cells co-transfected with AP-TGFalpha assessed as AP-TGFalpha release by TGFalpha shedding assay relative to LysopPS
# Type: functional, cell-based
# conditionLabel: filed as agonist
readoutName: Emax (%)
Output spec: scalar in %, unitless text.

Answered cases to consult:
* N[C@@H](COP(=O)(O)OCCCOC(=O)CCc1ccccc1Oc1cc(-c2ccccc2)cc(-c2ccccc2)c1)C(=O)O | 152
* N[C@@H](COP(=O)(O)OCCCOC(=O)CCc1ccccc1Oc1ccc(-c2ccccc2-c2ccccc2)cc1)C(=O)O | 113
* N[C@@H](COP(=O)(O)OCCCOC(=O)CCc1ccccc1Oc1cccc(-c2ccccc2)c1)C(=O)O | 133
* N[C@@H](COP(=O)(O)OCCCOC(=O)CCc1ccccc1Oc1ccc(-c2ccc(-c3ccccc3)cc2)cc1)C(=O)O | 89
* N[C@@H](COP(=O)(O)OCCCOC(=O)CCc1ccccc1Oc1ccc(-c2ccccc2)cc1)C(=O)O | 133

Value of measured Emax for the entry N[C@@H](COP(=O)(O)OCCCOC(=O)CCc1ccccc1Oc1ccc(-c2cccc(-c3ccccc3)c2)cc1)C(=O)O : 125

Value of measured Emax for the entry N[C@@H](COP(=O)(O)OCCCOC(=O)CCc1ccccc1Oc1ccc(-c2cc(-c3ccccc3)cc(-c3ccccc3)c2)cc1)C(=O)O : 112

---

# targetUnderTest: Putative P2Y purinoceptor 10 (Mus musculus) (UniProt Q8BFU7)
# testSummary: Agonist activity at mouse LPS2/P2Y10 transfected in HEK293-A cells co-transfected with AP-TGFalpha assessed as AP-TGFalpha release by TGFalpha shedding assay relative to LysoPS
# Format: functional, cell-based
# conditionLabel: filed as agonist
readoutName: Emax (%)
Output spec: scalar in %, unitless text.

Answered cases to consult:
- N[C@@H](COP(=O)(O)OCCCCCOC(=O)CC(=O)Cc1ccccc1Oc1ccc(-c2ccccc2)cc1)C(=O)O: 105
- N[C@@H](COP(=O)(O)OCCCOC(=O)CC(=O)Cc1ccccc1Oc1ccc(-c2ccccc2)cc1)C(=O)O: 99
- N[C@@H](COP(=O)(O)OCCCOC(=O)CCc1ccccc1Oc1ccc(-c2ccccc2)cc1)C(=O)O: 111
- N[C@@H](COP(=O)(O)OCCOC(=O)CC(=O)CC(=O)Cc1ccccc1Oc1ccc(-c2ccccc2)cc1)C(=O)O: 112
- CCc1ccccc1Oc1ccccc1CCC(=O)OCCCOP(=O)(O)OC[C@H](N)C(=O)O: 78
- Cc1ccc(Oc2ccccc2CCC(=O)OCCCOP(=O)(O)OC[C@H](N)C(=O)O)cc1: 88
- Cc1cccc(COc2ccccc2CCC(=O)OCCCOP(=O)(O)OC[C@H](N)C(=O)O)c1: 114
- N[C@@H](COP(=O)(O)OCCCOC(=O)CCc1ccccc1Oc1ccc(-c2ccc(C(=O)O)cc2)cc1)C(=O)O: 100

Value of measured Emax for the entry Cc1cccc(Oc2ccccc2CCC(=O)OCCCOP(=O)(O)OC[C@H](N)C(=O)O)c1 : 78

Value of measured Emax for the entry N[C@@H](COP(=O)(O)OCCCCOC(=O)CC(=O)CC(=O)Cc1ccccc1Oc1ccc(-c2ccccc2)cc1)C(=O)O : 118

Value of measured Emax for the entry N[C@@H](COP(=O)(O)OCCCOC(=O)CCc1ccccc1Oc1ccc(-c2cccc(-c3ccccc3)c2)cc1)C(=O)O : 113

Value of measured Emax for the entry CCc1ccc(Oc2ccccc2CCC(=O)OCCCOP(=O)(O)OC[C@H](N)C(=O)O)cc1 : 72

Value of measured Emax for the entry CCc1ccccc1-c1ccc(Oc2ccccc2CCC(=O)OCCCOP(=O)(O)OC[C@H](N)C(=O)O)cc1 : 92

Value of measured Emax for the entry N[C@@H](COP(=O)(O)OCCCCCOC(=O)CC(=O)CC(=O)Cc1ccccc1Oc1ccc(-c2ccccc2)cc1)C(=O)O : 96

Value of measured Emax for the entry CCCCCCCCCCCOc1ccccc1CCC(=O)OCC(F)(F)COP(=O)(O)OC[C@H](N)C(=O)O : 94

Value of measured Emax for the entry CC(C)(C)c1cc(Oc2ccccc2CCC(=O)OCCCOP(=O)(O)OC[C@H](N)C(=O)O)cc(C(C)(C)C)c1 : 125

Value of measured Emax for the entry CCCCCCOc1cccc(COc2ccccc2CCC(=O)OCCCOP(=O)(O)OC[C@H](N)C(N)=O)c1 : 113
